- Tested on: E. coli TESEC Mtb Alr
- Experimental details: growth (OD600 after 10 h); higher = more growth (less inhibition)
- Condition label: arabinose 10000000 nM; compound 0.1 mM; raw OD600 reference: median of DMSO wells 0.146, cell-free background 0.041
Where a name gives a salt, the structure may show the parent alone.
Listed compounds paired with reported growth
Parameter: growth

{"Compound": "NCC1(CC(=O)O)CCCCC1", "Reading": 0.156}
{"Compound": "CCn1cc(C(=O)O)c(=O)c2cc3c(cc21)OCO3", "Reading": 0.123}
{"Compound": "C[C@]12C[C@H]3S[C@H]3C[C@@H]1CC[C@@H]1[C@@H]2CC[C@]2(C)[C@@H](O)CC[C@@H]12 [Epitiostanol]", "Reading": 0.136}
{"Compound": "COP(=O)(OC)C(O)C(Cl)(Cl)Cl (configuration not stated)", "Reading": 0.146}
{"Compound": "C[N+](C)(C)CCCCCCCCCC[N+](C)(C)C [Decamethonium bromide]", "Reading": 0.13}
{"Compound": "N[C@@H]1C[C@H]1c1ccccc1 [Tranylcypromine hydrochloride]", "Reading": 0.141}
{"Compound": "CC(=O)OCC1=C(C(=O)O)N2C(=O)[C@@H](N)[C@H]2SC1", "Reading": 0.151}
{"Compound": "C[C@]12Cc3c[nH]nc3C[C@@H]1CC[C@@H]1[C@@H]2CC[C@@]2(C)[C@H]1CC[C@]2(C)O", "Reading": 0.139}
{"Compound": "C[C@]12CCC(=O)C=C1C=C[C@@H]1[C@@H]2CC[C@@]2(C)[C@H]1CC[C@@]2(O)CCC(=O)O [Canrenoic acid potassium salt]", "Reading": 0.15}
{"Compound": "CC(C)C[C@H](CN)CC(=O)O", "Reading": 0.134}
{"Compound": "NC(=O)C[S+]([O-])C(c1ccccc1)c1ccccc1 (configuration not stated)", "Reading": 0.148}
{"Compound": "Cc1cccc(C)c1NC1=NCCCS1", "Reading": 0.137}
{"Compound": "CCCC(C)(COC(N)=O)COC(=O)NC(C)C (configuration not stated)", "Reading": 0.142}
{"Compound": "CN(C)C(=O)Oc1cc(OC(=O)N(C)C)cc(C(O)CNC(C)(C)C)c1 (configuration not stated) [Bambuterol hydrochloride]", "Reading": 0.141}
{"Compound": "O=C(CCCN1CCC2(CC1)C(=O)NCN2c1ccccc1)c1ccc(F)cc1", "Reading": 0.149}
{"Compound": "C[C@@H]1CN([C@H]2CC[C@](C#N)(c3ccc(F)cc3)CC2)CC[C@]1(C(=O)O)c1ccccc1 [Levocabastine hydrochloride]", "Reading": 0.154}
{"Compound": "Clc1ccc(C(OCCN2CCCCC2)c2ccccc2)cc1 (configuration not stated) [Cloperastine hydrochloride]", "Reading": 0.0546}
{"Compound": "CC[C@@H](CO)NC(=O)[C@@H]1C=C2c3cccc4[nH]cc(c34)C[C@H]2N(C)C1 [Methylergometrine maleate]", "Reading": 0.178}
{"Compound": "CC[C@@]1(O)C(=O)OCc2c1cc1n(c2=O)Cc2cc3ccccc3nc2-1 [Camptothecine (S,+)]", "Reading": 0.141}
{"Compound": "C#C[C@]1(O)CC[C@H]2[C@@H]3CCC4=CC(=O)CCC4=C3C=C[C@@]21CC", "Reading": 0.134}
{"Compound": "CCC1(c2cccc(O)c2)CCCCN(C)C1 (configuration not stated) [Meptazinol hydrochloride]", "Reading": 0.139}
{"Compound": "CC(=O)O[C@H]1C[C@@H]2CC[C@@H]3[C@H](CC[C@@]4(C)[C@H]3C[C@H]([N+]3(C)CCCCC3)[C@@H]4OC(C)=O)[C@@]2(C)C[C@@H]1[N+]1(C)CCCCC1 [Pancuronium bromide]", "Reading": 0.154}
{"Compound": "NCCc1c[nH]c2ccc(O)cc12 [Serotonin hydrochloride]", "Reading": 0.145}
{"Compound": "CN1C(=O)CCS(=O)(=O)C1c1ccc(Cl)cc1 (configuration not stated)", "Reading": 0.146}
{"Compound": "COc1ccc(CCN2CCC(Nc3nc4ccccc4n3Cc3ccc(F)cc3)CC2)cc1", "Reading": 0.0404}
{"Compound": "CC(C)c1c(CN(C)C(C)Cc2ccccc2)n(C)n(-c2ccccc2)c1=O (configuration not stated)", "Reading": 0.154}
{"Compound": "C[C@@H]1C[C@@H]([C@H](O)CC2CC(=O)NC(=O)C2)C(=O)[C@@H](C)C1 [Cycloheximide]", "Reading": 0.157}
